Read-out: ABC Transporter (ABCB11), ABCB11 (gene 8647)
Assay: LTEA_HepaRG_ABCB11: Life Technologies and Expression Analysis (LTEA) Assay for ABC Transporter (ABCB11) using HepaRG (AID 2283463)
Conditions: mRNA level, 48 h; actives raise or lower the signal
Calls of active or inactive are those of the source. Rule for the calls: active = hit-call score of the fitted dose curve at least 0.9, where 1 is the maximum; inactive = score below 0.9.
readout: AC50

C[C@]12CC[C@@H]3c4ccc(O)cc4CC[C@H]3[C@@H]1CC[C@@H]2O
50 µM (active)
COC(=O)c1ccc(C(=O)OC)cc1
inactive
O=C(c1ccc(OCCN2CCCCC2)cc1)c1c(-c2ccc(O)cc2)sc2cc(O)ccc12
7.18 µM (active)
C#C[C@]1(O)CC[C@H]2[C@@H]3CCc4cc(O)ccc4[C@H]3CC[C@@]21C
inactive
